Form field: pIC50 (one value per entry).
- TARGET OF ASSAY: HCV NS3/4A protease genotype 1b (Hepatitis C virus genotype 1b)
- Sequence (P26663 1027-1657): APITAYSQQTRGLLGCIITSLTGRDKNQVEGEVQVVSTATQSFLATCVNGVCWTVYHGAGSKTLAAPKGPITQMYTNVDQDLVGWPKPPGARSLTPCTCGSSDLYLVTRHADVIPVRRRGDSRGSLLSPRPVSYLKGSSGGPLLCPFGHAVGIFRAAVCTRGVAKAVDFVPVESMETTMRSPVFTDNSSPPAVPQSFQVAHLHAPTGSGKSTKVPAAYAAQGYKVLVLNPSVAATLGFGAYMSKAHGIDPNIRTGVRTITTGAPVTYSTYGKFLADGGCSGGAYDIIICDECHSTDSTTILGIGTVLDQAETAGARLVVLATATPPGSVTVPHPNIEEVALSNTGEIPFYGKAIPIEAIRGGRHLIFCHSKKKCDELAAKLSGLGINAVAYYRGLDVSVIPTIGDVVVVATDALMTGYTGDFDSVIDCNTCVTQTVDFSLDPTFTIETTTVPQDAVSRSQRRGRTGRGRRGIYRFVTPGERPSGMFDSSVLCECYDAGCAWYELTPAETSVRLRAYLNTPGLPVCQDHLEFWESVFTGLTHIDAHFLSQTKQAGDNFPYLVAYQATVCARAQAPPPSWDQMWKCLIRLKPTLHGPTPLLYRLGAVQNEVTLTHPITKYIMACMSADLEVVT
- Sequence (P26663 1658-1711): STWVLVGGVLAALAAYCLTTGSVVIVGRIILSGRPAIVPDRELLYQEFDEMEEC
- PROCEDURE TEXT: HCV NS3/4A protease time-resolved fluorescence (TRF) assay, Ki against genotype 1b
- Format: biochemical
- PROTOCOL CONDITIONS: IC50 [gt-1b], NS3/4A protease TRF assay, genotype 1b enzyme 0.2 nM
pIC50: −log10 of the molar value.
OBSERVED PROPERTY: pIC50

• Cc1ccc2nc(C(F)(F)F)c3c(c2c1)CC[C@]1(C[C@H]2C(=O)N[C@]4(C(=O)NS(=O)(=O)C5(C)CC5)C[C@H]4/C=C\CCCCC[C@H](NC(=O)OCCN4CCCC4)C(=O)N2C1)O3 = 9.79
• COc1ccc2nc(C(F)(F)F)c3c(c2c1)[C@H](F)C[C@]1(C[C@H]2C(=O)N[C@]4(C(=O)NS(=O)(=O)C5(C)CC5)C[C@H]4/C=C\CCCCC[C@H](NC(=O)OCC(C)(C)C)C(=O)N2C1)O3 = 10.44
• COCC1(S(=O)(=O)NC(=O)[C@@]23C[C@H]2/C=C\CCCCC[C@H](NC(=O)C2CCC(=O)N(C)C2)C(=O)N2C[C@@]4(CCc5c(c(C(F)(F)F)nc6ccc(OC)cc56)O4)C[C@H]2C(=O)N3)CC1 (stereo partly drawn) = 10.85
• COc1ccc2nc(C)c3c(c2n1)CC[C@]1(C[C@H]2C(=O)N[C@]4(C(=O)NS(=O)(=O)C5(C)CC5)C[C@H]4/C=C\CCCCC[C@H](NC(=O)OCC(C)(C)C)C(=O)N2C1)O3 = 10.92
• Cc1ccc2nc(C(F)(F)F)c3c(c2c1)CC[C@]1(C[C@H]2C(=O)N[C@]4(C(=O)NS(=O)(=O)C5(C)CC5)C[C@H]4/C=C\CCCCC[C@H](NC(=O)OCCN4CCCCC4)C(=O)N2C1)O3 = 10.03
• COc1ccc2nc(C)c3c(c2n1)[C@H](F)C[C@]1(C[C@H]2C(=O)N[C@]4(C(=O)NS(=O)(=O)C5(C)CC5)C[C@H]4/C=C\CCCCC[C@H](NC(=O)OC(C)(C)C)C(=O)N2C1)O3 = 10.92
• CC(C)OC(=O)N[C@H]1CCCCC/C=C\[C@@H]2C[C@@]2(C(=O)NS(=O)(=O)C2(C)CC2)NC(=O)[C@@H]2C[C@]3(CCc4c(c(C(F)(F)F)nc5ccc(Cl)cc45)O3)CN2C1=O = 10.77
• COc1ccc2nc(C)c3c(c2n1)CC[C@]1(C[C@H]2C(=O)N[C@]4(C(=O)NS(=O)(=O)C5(C)CC5)C[C@H]4/C=C\CCCCC[C@H](NC(=O)OC4(C)CC4)C(=O)N2C1)O3 = 10.92
• COc1ccc2nc(C)c3c(c2c1)CC[C@]1(C[C@H]2C(=O)N[C@]4(C(=O)NS(=O)(=O)C5(C)CC5)C[C@H]4/C=C\CCCCC[C@H](NC(=O)OC(C(C)(C)C)C(F)(F)F)C(=O)N2C1)O3 (stereo partly drawn) [Example 367] = 10.52
• CCc1nc2ccc(OCCCN3CCOCC3)cc2c2c1O[C@]1(CC2)C[C@H]2C(=O)N[C@]3(C(=O)NS(=O)(=O)C4(C)CC4)C[C@H]3/C=C\CCCCC[C@H](NC(=O)OC(C)(C)C)C(=O)N2C1 = 10.92
• COc1ccc2nc(C)c3c(c2n1)CC[C@]1(C[C@H]2C(=O)N[C@]4(C(=O)NS(=O)(=O)C5(C)CC5)C[C@H]4/C=C\CCCCC[C@H](NC(=O)OC4(C)CCC4)C(=O)N2C1)O3 = 10.70
• CCc1nc2ccc(OC)cc2c2c1O[C@]1(CC2)C[C@H]2C(=O)N[C@]3(C(=O)NS(=O)(=O)C4(C)CC4)C[C@H]3/C=C\CCCCC[C@H](NC(=O)c3sccc3F)C(=O)N2C1 = 10.77
• Cc1nc2ccccc2c2c1O[C@]1(CC2)C[C@H]2C(=O)N[C@]3(C(=O)NS(=O)(=O)C4(C)CC4)C[C@H]3/C=C\CCCCC[C@H](Nc3ncccn3)C(=O)N2C1 = 9.40
• COc1ccc2nc(C(F)(F)F)c3c(c2c1)[C@](C)(O)C[C@]1(C[C@H]2C(=O)N[C@]4(C(=O)NS(=O)(=O)C5(C)CC5)C[C@H]4/C=C\CCCCC[C@H](NC(=O)OCC(C)C)C(=O)N2C1)O3 = 10.80
• COc1ccc2nc(C(F)(F)F)c3c(c2c1)OC[C@]1(C[C@H]2C(=O)N[C@]4(C(=O)NS(=O)(=O)C5(C)CC5)C[C@@H]4/C=C/CCCCC[C@H](NC(=O)OC(C)(C)C)C(=O)N2C1)O3 = 7.95
• CC(C)COC(=O)N[C@H]1CCCCC/C=C\[C@@H]2C[C@@]2(C(=O)NS(=O)(=O)C2(C)CC2)NC(=O)[C@@H]2C[C@]3(CCc4c(c(C(F)F)nc5ccc(Cl)cc45)O3)CN2C1=O = 10.77
• CCc1nc2ccc(OC)cc2c2c1O[C@]1(CC2)C[C@H]2C(=O)N[C@]3(C(=O)NS(=O)(=O)C4(C)CC4)C[C@H]3/C=C\CCCCC[C@H](NC(=O)c3sccc3C)C(=O)N2C1 = 11.22
• Cc1nc2ccc(F)cc2c2c1O[C@]1(CC2)C[C@H]2C(=O)N[C@]3(C(=O)NS(=O)(=O)C4(C)CC4)C[C@H]3/C=C\CCCCC[C@H](NC(=O)OCC(C)(C)C)C(=O)N2C1 = 10.89
